Numbers sourced from patent US20150166523A1.

system tested: orexin-2 receptor (hOX2R) (Homo sapiens)
Sequence (O43614 whole entry): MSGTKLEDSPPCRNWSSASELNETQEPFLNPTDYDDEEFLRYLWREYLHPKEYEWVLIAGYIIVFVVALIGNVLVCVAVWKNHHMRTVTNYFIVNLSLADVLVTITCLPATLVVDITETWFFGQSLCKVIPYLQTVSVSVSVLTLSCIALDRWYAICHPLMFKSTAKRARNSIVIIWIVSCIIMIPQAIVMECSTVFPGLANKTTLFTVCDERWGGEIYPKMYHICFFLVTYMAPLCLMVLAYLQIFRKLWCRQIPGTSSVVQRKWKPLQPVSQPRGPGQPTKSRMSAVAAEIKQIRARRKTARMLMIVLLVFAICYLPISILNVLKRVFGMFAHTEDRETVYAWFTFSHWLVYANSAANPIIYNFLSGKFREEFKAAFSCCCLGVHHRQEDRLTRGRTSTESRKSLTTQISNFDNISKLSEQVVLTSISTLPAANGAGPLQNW
assay details: Measurement of orexin antagonistic activity (intracellular Ca2+ fluorescence, FDSS) on hOX2R
condition notes: CHO cells forcibly expressing hOX2R; Fluo-4AM; ligand peptide (substituted human orexin-A) 3 nM; compound preincubated 30 minutes; read-out: IC50 Value OX2
The entries below are paired with their reported IC50.
State the answer as a number, implicitly in nM.

These recorded examples may help you get a feel for the data.
> print(dat)
                                   compound  experimental.readout  unit.spec   val
1  CCN(C(=O)c1nc(C)ccc1-n1nccn1)[C@@H](C)Cn1cc(-c2ccc(F)cc2)nn1 [Example 83]                  IC50         nM   308
2  COCCN(C(=O)c1cc(C)ccc1-n1nccn1)[C@@H](C)Cn1cc(-c2ccc(F)cn2)cn1 [Example 38]                  IC50         nM   351
3  CCN(C(=O)c1cc(F)ccc1-c1ncccn1)[C@@H](C)Cn1cc(-c2ccc(F)cc2)cn1 [Example 30]                  IC50         nM  35.7

--- query ---
Give IC50 for this entry on orexin-2 receptor (hOX2R) (Homo sapiens): CCN(C(=O)c1cc(F)ccc1-n1nccn1)[C@@H](C)Cn1nnc(-c2ccc(F)cc2)n1 [Example 66]
129
